MEASUREMENT TARGET: hTRPML1 (Homo sapiens, UniProt Q9GZU1)
Sequence (Q9GZU1 whole entry L15A/L16A/L577A/L578A, form open): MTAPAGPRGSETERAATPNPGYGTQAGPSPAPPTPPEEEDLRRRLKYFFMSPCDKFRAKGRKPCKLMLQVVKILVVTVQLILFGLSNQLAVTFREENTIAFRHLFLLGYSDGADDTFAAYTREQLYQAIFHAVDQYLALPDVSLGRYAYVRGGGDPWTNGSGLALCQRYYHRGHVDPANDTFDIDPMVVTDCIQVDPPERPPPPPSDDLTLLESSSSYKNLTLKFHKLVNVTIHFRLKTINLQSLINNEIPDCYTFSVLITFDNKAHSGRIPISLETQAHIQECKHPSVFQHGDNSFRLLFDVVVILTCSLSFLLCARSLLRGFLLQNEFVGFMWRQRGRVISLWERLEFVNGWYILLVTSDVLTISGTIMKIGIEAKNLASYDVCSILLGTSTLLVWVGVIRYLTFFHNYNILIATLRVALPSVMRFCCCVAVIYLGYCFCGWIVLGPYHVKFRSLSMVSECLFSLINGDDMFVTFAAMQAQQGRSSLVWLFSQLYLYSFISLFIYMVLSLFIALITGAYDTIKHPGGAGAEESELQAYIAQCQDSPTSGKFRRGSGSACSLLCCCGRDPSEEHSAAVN
ASSAY TEXT: TRPML1 fluorescent (Fluo-4) assay
Assay type: cell-based
Parameters: Secondary Screening: Fluo-4: hTRPML1: EC50 (M); HEK-293 Trex cells expressing hTRPML1
DETAILS: activation; HEK-293 Trex cells expressing hTRPML1; read-out: Secondary Screening: Fluo-4: hTRPML1: EC50
Parameter: EC50. Scope: all listed entries.

* CN(C)S(=O)(=O)c1ccc(S(=O)(=O)Nc2ccccc2N2CCC3(CCN(c4ccc(Cl)cc4F)C3)C2)cc1 (centres unmarked) [Compound 103] | 300 to 1000 nM
* CN(C)S(=O)(=O)c1ccc(S(=O)(=O)Cc2ccccc2N2CCN(c3ccc(Cl)cc3F)CC2)cc1 [Compound 106] | < 300 nM
* CN([C@H]1CCN(c2ccc(Cl)cc2F)C1)[C@H]1CCCC[C@@H]1NS(=O)(=O)c1ccc(S(=O)(=O)N(C)C)cc1 (stereo in doubt) [Compound 119] | < 300 nM
* CN(c1ccccc1NS(=O)(=O)c1ccc(S(=O)(=O)N(C)C)cc1)C1CCN(C(=O)OC(C)(C)C)C1 (centres unmarked) [Compound 114] | 1000 to 5000 nM
* CN(C)S(=O)(=O)c1ccc(S(=O)(=O)Nc2ccccc2N2CCN(C34CC(C3)C4)CC2)cc1 [Compound 115] | 1000 to 5000 nM
* CN(c1ccccc1NS(=O)(=O)c1ccc(S(=O)(=O)N(C)C)cc1)C1CCN(C(=O)Oc2ccccc2)C1 (centres unmarked) [Compound 123] | 1000 to 5000 nM
* CN(C)S(=O)(=O)c1ccc(S(=O)(=O)N[C@@H]2CCCCC[C@@H]2N2CCN(c3ccc(Cl)cc3F)CC2)cc1 (relative stereo) [Compound 122] | < 300 nM
* CN(c1ccc(Cl)cc1F)C1CCN(c2ccccc2NS(=O)(=O)c2ccc(S(=O)(=O)N(C)C)cc2)C1 (centres unmarked) [Compound 104] | < 300 nM
* CN(c1ccccc1NS(=O)(=O)c1ccc(S(=O)(=O)N(C)C)cc1)C1CCN(c2ccc(Cl)cc2F)C1 (centres unmarked) [Compound 101] | 300 to 1000 nM
* CN(C1CCN(c2ccccc2F)C1)[C@H]1CCCC[C@@H]1NS(=O)(=O)c1ccc(S(=O)(=O)N(C)C)cc1 (relative stereo) [Compound 121] | 1000 to 5000 nM

Task item: So what does the record say about EC50 for CN(C)S(=O)(=O)c1ccc(S(=O)(=O)N[C@H]2CCCC[C@@H]2N2CCN(c3ccccc3F)CC2)cc1 (relative stereo) [Compound 116] ?
Reply: 1000 to 5000 nM

Task item: // lookup EC50 for CN(C)S(=O)(=O)c1ccc(S(=O)(=O)N[C@H]2CCCC[C@H]2N2CCN(c3ccc(Cl)cc3F)CC2)cc1 (stereo in doubt) [Compound 109]
Reply: 1000 to 5000 nM

Task item: So what does the record say about EC50 for CN(c1ccccc1NS(=O)(=O)c1ccc(S(=O)(=O)N(C)C)cc1)C1CCN(c2ccccc2F)C1 (centres unmarked) [Compound 112] ?
Reply: 300 to 1000 nM

Task item: Quick check: EC50 of CN(c1ccccc1NS(=O)(=O)c1ccc(S(=O)(=O)N(C)C)cc1)C1CCN(C(=O)OC2CCCCC2)C1 (centres unmarked) [Compound 124] ?
Reply: 300 to 1000 nM
